Target: hM5 (Homo sapiens, UniProt P08912)
Sequence (P08912 whole entry): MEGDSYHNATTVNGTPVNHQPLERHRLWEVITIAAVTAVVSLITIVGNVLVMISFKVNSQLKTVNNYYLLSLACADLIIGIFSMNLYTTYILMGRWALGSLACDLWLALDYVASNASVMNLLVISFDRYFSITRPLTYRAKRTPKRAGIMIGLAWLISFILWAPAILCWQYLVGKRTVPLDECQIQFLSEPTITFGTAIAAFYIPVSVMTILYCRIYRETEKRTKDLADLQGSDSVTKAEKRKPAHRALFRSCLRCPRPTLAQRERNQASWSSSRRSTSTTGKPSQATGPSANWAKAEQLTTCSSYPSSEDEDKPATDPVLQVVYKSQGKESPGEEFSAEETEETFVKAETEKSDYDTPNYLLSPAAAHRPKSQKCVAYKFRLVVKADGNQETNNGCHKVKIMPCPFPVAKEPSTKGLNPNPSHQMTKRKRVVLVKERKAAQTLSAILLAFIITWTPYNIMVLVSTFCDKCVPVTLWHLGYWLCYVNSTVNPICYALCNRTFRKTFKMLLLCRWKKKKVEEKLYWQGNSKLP
Assay: Calcium mobilization assay, agonist mode, M5
Format: cell-based
Conditions: up to 30 μM

{"input.smiles": "CCOC(=O)N1CCC(NCCNC(=O)c2ccccc2C)CC1", "target.or.system": "hM5 (Homo sapiens, UniProt P08912)", "agonist activity at M5": "no activity"}
{"input.smiles": "CCOC(=O)N1CCC(NCCNC(=O)c2ccccc2)CC1", "target.or.system": "hM5 (Homo sapiens, UniProt P08912)", "agonist activity at M5": "no activity"}

* * *

Test: Aqueous solubility
Format: physicochemical
Settings: water
recorded.metric: solubility

GET /value?item= CCOC(=O)N1CCC(NCCNC(=O)c2ccccc2C)CC1 [VU0357017] &field=solubility returns > 25 mg/mL

* * *

Molecular target: rM1 receptor (Rattus norvegicus, UniProt P08482)
Sequence (P08482 whole entry): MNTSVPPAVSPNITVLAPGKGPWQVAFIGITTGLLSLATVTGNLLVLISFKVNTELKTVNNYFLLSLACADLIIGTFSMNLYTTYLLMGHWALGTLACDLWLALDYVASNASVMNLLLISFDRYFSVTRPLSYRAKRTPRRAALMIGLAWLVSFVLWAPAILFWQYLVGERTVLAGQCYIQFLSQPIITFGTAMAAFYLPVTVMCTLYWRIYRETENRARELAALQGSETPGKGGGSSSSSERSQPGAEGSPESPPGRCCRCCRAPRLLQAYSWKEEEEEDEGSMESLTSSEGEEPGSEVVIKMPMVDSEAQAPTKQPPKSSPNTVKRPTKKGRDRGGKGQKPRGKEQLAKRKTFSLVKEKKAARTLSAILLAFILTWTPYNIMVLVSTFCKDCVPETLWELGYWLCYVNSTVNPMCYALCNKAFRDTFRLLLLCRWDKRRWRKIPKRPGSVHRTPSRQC
Assay: Calcium mobilization assay, CHO-K1 cells stably expressing rM1
Format: cell-based
Conditions: read-out: M1 EC50; rM1 CHO-K1, calcium mobilization
Please provide measured EC50 for the entries that follow.
Give bare numbers, in nM.

{"compound": "CCOC(=O)N1CCC(NCCNC(=O)c2cccs2)CC1 [VU0177548]", "value.unit": "nM", "EC50": 1740}

Next compound, EC50 to be filled in.
GET /value?item= CCOC(=O)N1CCC(NCCNC(=O)c2ccccc2Cl)CC1 [VU0207811] &field=EC50 returns 804
